assay: chemical genetic growth profiling, strain panel (AID 1159580);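 also: tested at 20 µM; growth read once vehicle control cultures reached saturation at 30 °C; 1 = growth at the plate median or of vehicle wells; lower values mean less growth of the strain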; conditions: S. cerevisiae deletion strains, growth OD, locus YJL095W, strain BCK1, hits give low values
Out of some 5,500 compounds screened, about 2,000 (36%) were called active. Another 18% or so got no clear call; they are omitted. Some of the results follow.
Please provide measured normalized growth for the entries that follow.

For record COc1ccc(C(=O)c2ccccc2)c(O)c1O the listed normalized growth is 0.724 (active)

Lab note: COc1ccc(C(=O)c2ccc(O)cc2)c(O)c1O gave normalized growth of 0.986 (inactive)

The reported normalized growth of the compound CCOc1ccc(C(=O)c2ccc(OC)c(O)c2O)cc1 was 0.923 (inactive)

Short answer for CCN(CC)C(=O)c1ccc(O)c(OC)c1 : normalized growth was 1 (inactive)

----------
test: chemical genetic growth profiling, strain panel (AID 1159580);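 also: tested at 20 µM; growth read once vehicle control cultures reached saturation at 30 °C; 1 = growth at the plate median or of vehicle wells; lower values mean less growth of the strain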; details: S. cerevisiae deletion strains, growth OD, locus YGL173C, strain kem1
About 2,000 (36%) of roughly 5,500 compounds were called active. About 18% were inconclusive and are not listed. Cut-off read from the data, not from the text of the source: active = normalized growth mostly below about 0.91 (no sharp cut-off); inconclusive = no clear call, values can overlap the other calls; inactive = mostly above about 0.92. This is one part of the list. *1 amine or outer side, *2 acyl side, *3 side chain or, on linkers, in order; H or OH if unused. Where a SMILES comes first, the peptide text is derived from it. Bridges are numbered along the chain shown (N, C = ends). [ ]: non-standard residue; d: D form. The star is where a group is joined. ξ: configuration not given here. ΔAla(E,3-NHCONH2) = NC(=O)N/C=C(/N)C(=O)O; X2 = NC1=NCCC(C(N[*:1])C(=O)[*:2])N1; ξβ3hOrn = NCCCC(N)CC(=O)*; Dap = NC[CH](N)C(=O)O
Permitted responses: active, inactive

Assay result, entry CN1CCN(CCC=C2c3ccccc3Sc3ccc(S(=O)(=O)N(C)C)cc32)CC1 — outcome? inactive

Which result was noted for this molecule in the test: CC(=O)OCC(=O)[C@@]1(O)CCC2C3CCC4=CC(=O)CC[C@]4(C)C3[C@@H](O)C[C@@]21C (some centres undefined) inactive

Which result was noted for this molecule in the test: CC(=O)O[C@@H]1CC[C@]2(C)C3CC[C@]4(C)C(=O)CCC4C3CC[C@H]2C1 (some centres undefined) inactive

Hello, I am checking results. What call was entered for O=C1c2ccccc2C(=O)C1c1ccccc1 ? inactive

Per the records of this test, what outcome belongs to CCC1C(=O)OCC1Cc1cncn1C (centres undefined) ? inactive

# outcome recorded in this test, key = CC(=O)O[C@H]1CC[C@]2(C)C3CC[C@@]4(C)C(CC5O[C@@]6(CCC(C)CO6)[C@@H](C)C54)C3CC[C@@H]2C1 (some centres undefined) inactive

Short answer needed: outcome of this test for COc1ccc(C(=O)c2ccccc2)c(O)c1O ? inactive

Which outcome did this test record for the molecule Cc1c(NC(=O)c2cccnc2)c(=O)n(-c2ccccc2)n1C ? inactive

Short answer needed: outcome of this test for COc1cc2c(cc1OC)[C@@H]1C(=O)c3ccc4c(c3O[C@@H]1CO2)CC(C(C)C)O4 (some centres undefined) ? inactive

What call does the record list for CCOc1ccc(NC(C)=O)cc1 ? inactive

Assay outcome for NC[C@H]1O[C@H](O[C@H]2C(O[C@@H]3O[C@H](CO)[C@@H](O)[C@H]3O)[C@@H](O)[C@H](N)C[C@@H]2N)[C@H](N)[C@@H](O)[C@@H]1O (some centres undefined) : what was it? inactive

Tell me the assay call for O=c1oc2c(O)c(O)cc3c(=O)oc4c(O)c(O)cc1c4c23 please. active

Please let me know the test result on file for CC(=O)NO . inactive

Assay result, entry C#C[C@]1(O)CCC2C3CCC4=Cc5oncc5C[C@]4(C)C3CC[C@@]21C (some centres undefined) — outcome? inactive

Which result was noted for this molecule in the test: CN[C@@H]1[C@@H](O[C@H]2O[C@H](CO)[C@@H](N)[C@H](O)[C@H]2O)O[C@H]2C[C@@H](N)[C@H](O[C@H]3[C@H](O)[C@@H](O)[C@H](N)C[C@@H]3N)O[C@@H]2[C@@H]1O inactive

Lab log entry: CCOc1ccc(C(=O)c2ccc(OC)c(O)c2O)cc1 — outcome as called in the assay? inactive

Called result for COc1ccc(C(=O)c2ccc(O)cc2)c(O)c1O inactive

// return assay outcome for NC1C[C@H]1c1ccccc1 (some centres undefined) inactive

GET /call?item= OCCN1CCN(CCCN2c3ccccc3Sc3ccc(C(F)(F)F)cc32)CC1 returns the recorded outcome of this test. inactive

I'd appreciate the recorded outcome for C[C@]12CCC3C(CC[C@H]4C[C@H](OS(=O)(=O)O)CC[C@]34C)C1CCC2=O (some centres undefined) from this test. inactive

Fill in: this test's call for CC1=NN(c2ccccc2)C(=O)C1 is ___ inactive

State the result this test recorded for CCCc1nc2c(C)cc(-c3nc4ccccc4n3C)cc2n1Cc1ccc(-c2ccccc2C(=O)O)cc1 . inactive

Please share the test call associated with Cc1ccc(N(CC2=NCCN2)c2cccc(O)c2)cc1 . inactive

GET /call?item= CCCCCCCCCCCCCCCCCCOCC(O)CO (centres undefined) returns the recorded outcome of this test. inactive

What was the test verdict on COc1cc(/C=C/C(=O)N2CCC=CC2=O)cc(OC)c1OC ? inactive

For NC(=O)N1c2ccccc2C=Cc2ccccc21 , what call appears in the results of this test? inactive

// outcome(item) with item = NCCCC(N)CC(=O)NCC1NC(=O)C(CO)NC(=O)C(N)CNC(=O)C(C2CCN=C(N)N2)NC(=O)/C(=C\NC(N)=O)NC1=O (stereo not drawn) (H-[Dap]S[Dap](ξβ3hOrn)[ΔAla(E,3-NHCONH2)][X2]; lactam 1-C; configuration not given here) inactive

What outcome does the record of this test show for CCc1cccc2c3c([nH]c12)C(CC)(CC(=O)O)OCC3 (centres undefined) ? inactive

Fill in: this test's call for COC1(C)CCC2OC2(C)CCC2C1CC2(C)C (centres undefined) is ___ inactive

Please state the recorded outcome for this molecule: CC(=O)Oc1ccccc1C(=O)O inactive

In this assay, the call recorded for O=C(O)c1cc(=O)c2cccc(O)c2[nH]1 was what? inactive

Assay outcome for Cc1cc(=O)n(-c2ccccc2)n1C : what was it? inactive

Which outcome was assigned to Cc1cc(C(C)(C)C)c(O)c(C)c1CC1=NCCN1 in this test? inactive

What call does the record list for CCCCc1nc(Cl)c(CO)n1Cc1ccc(-c2ccccc2-c2nn[nH]n2)cc1 ? inactive

How was COc1ccc([C@H]2COc3c(ccc(O)c3OC)C2)c(OC)c1O classified in this test? inactive

Would you mind telling me which call this test gave NCCNCCNCCN ? inactive

Hi, do you know how NCCc1cc(O)c(O)cc1O came out in this test? active

For this molecule, state the assay outcome: O=C(O)c1cc(=O)c2c(Cl)cc(Cl)cc2[nH]1 inactive

Any idea what this test logged for CC1(C)C=Cc2cc3ccc(=O)oc3cc2O1 ? inactive

Hey, what did the test say about COc1cc(O)cc(OC)c1OC ? inactive

Please indicate how the test categorized CN1CCN(CCCN2c3ccccc3Sc3ccc(C(F)(F)F)cc32)CC1 . active

Please share the test call associated with COc1c2c(cc3c1OCO3)C13C=C[C@H](OC)CC1N(C2)CC3O (some centres undefined) . inactive

Fill in: this test's call for COc1cc2c(cc1O)CCNC2C (centres undefined) is ___ inactive

# outcome recorded in this test, key = CC(=O)O[C@H]1CC[C@]2(C)C3CC(=O)[C@]4(C)C(C(C)=O)=CCC4C3CC[C@H]2C1 (some centres undefined) inactive
